Record form. Attribute: myelination. Fill in for each entry.
test system: E18 rat cortical neuron-glia co-culture; assay: myelination (MBP fiber length per Olig2+ nucleus), % of 1 µM DAPT response (DMSO = 0) (% of DAPT); higher = more myelination, active = 50 or more; details: 1 µM; treatment time: 8 days (DIV5-DIV13)
Hey, just send me the number, nothing else.

Give myelination for COc1ccc(CCN(C)CCCC(C#N)(c2ccc(OC)c(OC)c2)C(C)C)cc1OC (centres undefined) [Verapamil]
-27.2

State its myelination for this compound: CN(C)[C@@H]1C(O)=C(C(N)=O)C(=O)[C@@]2(O)C(O)=C3C(=O)c4c(O)cccc4[C@@](C)(O)[C@H]3[C@H](O)[C@@H]12 [Oxytetracycline]
-5.3

Tell us which myelination value is on record for `Nc1nc2ccc(Cl)cc2c2nc(-c3ccco3)nn12`
-37.8

Quickly give me recorded myelination for O=C1Nc2ccc(Cl)cc2[C@@](C#CC2CC2)(C(F)(F)F)O1 [Efavirenz]
-8.9
